- measurement notes: Tissue distribution (biodistribution) of radioiodinated compound in the rat
- condition label: rat, iv, 180 min
test readout: radioactivity in brain (% dose/g)
I only need the number, in % dose/g, no unit after it.

Worked cases, answers included:
compound | test readout | result units | quantitative result
OC(Cc1ccc([125I])cc1)CN1CCC(c2ccccc2)CC1 (single isomer, unassigned; (-)) [(-)-4-[^125 l]HIPP] | radioactivity in brain | % dose/g | 0.94
OC(CN1CCC(c2ccccc2)CC1)c1ccc([125I])cc1 (single isomer, unassigned; (-)) [(-)-[^125 l]13] | radioactivity in brain | % dose/g | 0.35
OC(Cc1cccc([125I])c1)CN1CCC(c2ccccc2)CC1 (single isomer, unassigned; (-)) [(-)-[^125 l]12] | radioactivity in brain | % dose/g | 0.27
OC(CN1CCC(c2ccccc2)CC1)c1ccc([125I])cc1 (single isomer, unassigned; (+)) [(+)-[^125 l]13] | radioactivity in brain | % dose/g | 0.93

Continue with the next compound.
Challenge: I am curious: what radioactivity in brain value has been reported for OC(Cc1cccc([125I])c1)CN1CCC(c2ccccc2)CC1 (single isomer, unassigned; (+)) [(+)-[^125 l]12] ?
Response given: 0.56

----------
- measurement notes: Blocking experiments: inhibition of radiotracer accumulation in the rat by coadministered compound
- Format: in vivo, rat (male Wistar)
- condition label: rat, blood, iv, rat, iv, 60 min, + (+)-7 HCl 0.53 mg/kg; read-out: radioactivity in blood
test readout: tissue uptake at 1 h (%ID/g)
Kindly provide the numeric value in %ID/g only, without the unit symbol.

Challenge: What does the data say about its tissue uptake at 1 h? Entry: OC(Cc1ccc([125I])cc1)CN1CCC(c2ccccc2)CC1 (single isomer, unassigned; (-)) [(-)-4-[^125 l]HIPP]
Response given: 0.05

----------
Reported tissue uptake at 1 h values for a set of compounds
- measurement notes: Blocking experiments: inhibition of radiotracer accumulation in the rat by coadministered compound
- Format: in vivo, rat (male Wistar)
- condition label: rat, kidney, iv, rat, iv, 60 min, + (dl)-vesamicol HCl 0.3 (Table 3) or 0.31 mg/kg; read-out: radioactivity in kidney
Enter the number, and then the unit.

For orientation, consider the following solved cases.
compound | tissue uptake at 1 h
OC(Cc1ccc([125I])cc1)CN1CCC(c2ccccc2)CC1 (single isomer, unassigned; (-)) [(-)-4-[^125 l]HIPP] | 0.35 %ID/g
OC(CN1CCC(c2ccccc2)CC1)c1ccc([125I])cc1 (single isomer, unassigned; (+)) [(+)-[^125 l]13] | 0.41 %ID/g

Moving on to another compound below.
Challenge: Which tissue uptake at 1 h value belongs to OC(Cc1cccc([125I])c1)CN1CCC(c2ccccc2)CC1 (single isomer, unassigned; (+)) [(+)-[^125 l]12] ?
Response given: 0.55 %ID/g

----------
Recorded measurements of tissue uptake at 5 min, one per entry
- measurement notes: Tissue distribution (biodistribution) of radioiodinated compound in the rat
- condition label: rat, kidney, iv, radioactivity in kidney, 5 min
The reply should contain only the number, in %ID/g.

// solved cases for tissue uptake at 5 min follow
compound | tissue uptake at 5 min, %ID/g
OC(Cc1ccc([125I])cc1)CN1CCC(c2ccccc2)CC1 (single isomer, unassigned; (+)) [(+)-4-[^125 l]HIPP] | 2.84
OC(Cc1cccc([125I])c1)CN1CCC(c2ccccc2)CC1 (single isomer, unassigned; (+)) [(+)-[^125 l]12] | 2.55

Challenge: Record request: tissue uptake at 5 min value, item OC(CN1CCC(c2ccccc2)CC1)c1ccc([125I])cc1 (single isomer, unassigned; (+)) [(+)-[^125 l]13]
Response given: 3.12

----------
Each entry below lists one item and its recorded Brain: Blood Ratio value.
- System: vesamicol receptor
- measurement notes: Blocking experiments: inhibition of radiotracer accumulation in the rat by coadministered compound
- Assay type: in vivo, rat (male Wistar)
- condition label: rat, iv, 60 min, radiotracer only (control)
Enter a number only.

molecule | system tested | quantitative result
OC(Cc1cccc([125I])c1)CN1CCC(c2ccccc2)CC1 (single isomer, unassigned; (-)) [(-)-[^125 l]12] | vesamicol receptor | 5.08

Challenge: What value of Brain: Blood Ratio has been recorded for this entry: OC(Cc1cccc([125I])c1)CN1CCC(c2ccccc2)CC1 (single isomer, unassigned; (+)) [(+)-[^125 l]12]
Response given: 8.49

Challenge: Moving on to OC(CN1CCC(c2ccccc2)CC1)c1ccc([125I])cc1 (single isomer, unassigned; (-)) [(-)-[^125 l]13]
Response given: 7.41

Challenge: Next up: OC(Cc1ccc([125I])cc1)CN1CCC(c2ccccc2)CC1 (single isomer, unassigned; (-)) [(-)-4-[^125 l]HIPP]
Response given: 42.7

Challenge: Try this molecule next: OC(CN1CCC(c2ccccc2)CC1)c1ccc([125I])cc1 (single isomer, unassigned; (+)) [(+)-[^125 l]13]
Response given: 17.86

Challenge: Same question for OC(Cc1ccc([125I])cc1)CN1CCC(c2ccccc2)CC1 (single isomer, unassigned; (+)) [(+)-4-[^125 l]HIPP] please.
Response given: 28.7

----------
Parameter tissue uptake at 3 h: see the listing below.
- measurement notes: Tissue distribution (biodistribution) of radioiodinated compound in the rat
- condition label: rat, muscle, iv, radioactivity in muscle, 180 min
Numbers only; they are read as %ID/g.

molecule | result units | tissue uptake at 3 h
OC(Cc1ccc([125I])cc1)CN1CCC(c2ccccc2)CC1 (single isomer, unassigned; (+)) [(+)-4-[^125 l]HIPP] | %ID/g | 0.24

Next item in the queue.
Challenge: Looking for the measured tissue uptake at 3 h of OC(Cc1cccc([125I])c1)CN1CCC(c2ccccc2)CC1 (single isomer, unassigned; (+)) [(+)-[^125 l]12] , can you help?
Response given: 0.12

----------
- measurement notes: Blocking experiments: inhibition of radiotracer accumulation in the rat by coadministered compound
- Format: in vivo, rat (male Wistar)
- condition label: rat, heart, iv, rat, iv, 60 min, + cold (dl)3-HIPP HCl 0.53 mg/kg; read-out: radioactivity in heart
test readout: tissue uptake at 1 h (%ID/g)
Answer with a number only, understood to be in %ID/g.

Challenge: # lookup: tissue uptake at 1 h of OC(Cc1cccc([125I])c1)CN1CCC(c2ccccc2)CC1 (single isomer, unassigned; (+)) [(+)-[^125 l]12]
Response given: 0.15

----------
- measurement notes: Blocking experiments: inhibition of radiotracer accumulation in the rat by coadministered compound
- Type: in vivo, rat (male Wistar)
- condition label: rat, heart, iv, rat, iv, 60 min, + (-)-7 HCl 0.53 mg/kg; read-out: radioactivity in heart
test readout: tissue uptake at 1 h (%ID/g)
Answer in %ID/g, number only, no unit symbol.

Challenge: So what does the record say about tissue uptake at 1 h for OC(Cc1ccc([125I])cc1)CN1CCC(c2ccccc2)CC1 (single isomer, unassigned; (-)) [(-)-4-[^125 l]HIPP] ?
Response given: 0.13

----------
- measurement notes: Tissue distribution (biodistribution) of radioiodinated compound in the rat
- condition label: rat, lung, iv, radioactivity in lung, 5 min
Reported tissue uptake at 5 min by item:
Please respond with the number in %ID/g and leave the unit unwritten.

Examples with answers:
molecule | tissue uptake at 5 min / %ID/g
OC(Cc1cccc([125I])c1)CN1CCC(c2ccccc2)CC1 (single isomer, unassigned; (+)) [(+)-[^125 l]12] | 7.34
OC(CN1CCC(c2ccccc2)CC1)c1ccc([125I])cc1 (single isomer, unassigned; (+)) [(+)-[^125 l]13] | 7.87

Then this molecule:
Challenge: Could you tell me which tissue uptake at 5 min is on file for OC(Cc1ccc([125I])cc1)CN1CCC(c2ccccc2)CC1 (single isomer, unassigned; (+)) [(+)-4-[^125 l]HIPP] ?
Response given: 11.5

----------
# reported tissue uptake at 3 h; entries follow
- measurement notes: Tissue distribution (biodistribution) of radioiodinated compound in the rat
- condition label: rat, spleen, iv, radioactivity in spleen, 180 min
Use %ID/g as the unit, but write only the number.

molecule | test readout | quantitative result
OC(Cc1cccc([125I])c1)CN1CCC(c2ccccc2)CC1 (single isomer, unassigned; (+)) [(+)-[^125 l]12] | tissue uptake at 3 h | 0.66

Moving on to another molecule below.
Challenge: What value of tissue uptake at 3 h has been recorded for this entry: OC(Cc1ccc([125I])cc1)CN1CCC(c2ccccc2)CC1 (single isomer, unassigned; (+)) [(+)-4-[^125 l]HIPP]
Response given: 1.39

----------
Measured radioactivity in liver accompanies every entry in the list below.
- measurement notes: Tissue distribution (biodistribution) of radioiodinated compound in the rat
- condition label: rat, iv, 180 min
Report the figure in % dose/g without appending any unit label.

compound | test readout | quantitative result
OC(Cc1ccc([125I])cc1)CN1CCC(c2ccccc2)CC1 (single isomer, unassigned; (-)) [(-)-4-[^125 l]HIPP] | radioactivity in liver | 2.43
OC(CN1CCC(c2ccccc2)CC1)c1ccc([125I])cc1 (single isomer, unassigned; (+)) [(+)-[^125 l]13] | radioactivity in liver | 1.97
OC(Cc1cccc([125I])c1)CN1CCC(c2ccccc2)CC1 (single isomer, unassigned; (-)) [(-)-[^125 l]12] | radioactivity in liver | 0.79

Would you kindly look at the next entry?
Challenge: What value of measured radioactivity in liver is listed for OC(CN1CCC(c2ccccc2)CC1)c1ccc([125I])cc1 (single isomer, unassigned; (-)) [(-)-[^125 l]13] ?
Response given: 0.98
